- TESTED_SYSTEM: Polyunsaturated fatty acid 5-lipoxygenase (Homo sapiens)
- Sequence (P09917 whole entry): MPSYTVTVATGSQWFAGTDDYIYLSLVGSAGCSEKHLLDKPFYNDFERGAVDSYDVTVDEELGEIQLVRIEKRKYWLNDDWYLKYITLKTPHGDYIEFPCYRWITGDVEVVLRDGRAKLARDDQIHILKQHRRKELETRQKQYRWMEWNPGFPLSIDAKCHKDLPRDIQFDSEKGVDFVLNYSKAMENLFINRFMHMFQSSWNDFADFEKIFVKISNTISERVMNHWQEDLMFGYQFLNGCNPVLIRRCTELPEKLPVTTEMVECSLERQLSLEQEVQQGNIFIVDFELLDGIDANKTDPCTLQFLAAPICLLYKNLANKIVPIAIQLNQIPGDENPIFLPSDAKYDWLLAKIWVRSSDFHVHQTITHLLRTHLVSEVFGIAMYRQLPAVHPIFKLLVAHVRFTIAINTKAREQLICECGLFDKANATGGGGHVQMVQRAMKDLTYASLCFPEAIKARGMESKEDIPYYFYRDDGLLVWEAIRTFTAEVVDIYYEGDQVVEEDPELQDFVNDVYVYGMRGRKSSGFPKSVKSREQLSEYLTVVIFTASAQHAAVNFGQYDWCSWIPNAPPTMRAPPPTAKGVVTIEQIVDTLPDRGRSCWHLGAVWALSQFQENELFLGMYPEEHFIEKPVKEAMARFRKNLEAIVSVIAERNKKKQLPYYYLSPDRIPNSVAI
ASSAY_ENDPOINT: pIC50
Answers are plain numbers, as −log10 of the molar value.

O=C1C(Cc2cccn2Cc2ccccc2)c2ccccc2N1c1c(Cl)cccc1Cl (stereo not drawn)    6.31

(Q) Looking for the measured pIC50 of "Oc1c(Cc2cn(Cc3ccccc3)c3ccccc23)c2ccccc2n1-c1c(Cl)cccc1Cl" , can you help?
(A) 7.00

----------
- TESTED_SYSTEM: Polyunsaturated fatty acid 5-lipoxygenase (Homo sapiens) (UniProt P09917)
- Sequence (whole entry): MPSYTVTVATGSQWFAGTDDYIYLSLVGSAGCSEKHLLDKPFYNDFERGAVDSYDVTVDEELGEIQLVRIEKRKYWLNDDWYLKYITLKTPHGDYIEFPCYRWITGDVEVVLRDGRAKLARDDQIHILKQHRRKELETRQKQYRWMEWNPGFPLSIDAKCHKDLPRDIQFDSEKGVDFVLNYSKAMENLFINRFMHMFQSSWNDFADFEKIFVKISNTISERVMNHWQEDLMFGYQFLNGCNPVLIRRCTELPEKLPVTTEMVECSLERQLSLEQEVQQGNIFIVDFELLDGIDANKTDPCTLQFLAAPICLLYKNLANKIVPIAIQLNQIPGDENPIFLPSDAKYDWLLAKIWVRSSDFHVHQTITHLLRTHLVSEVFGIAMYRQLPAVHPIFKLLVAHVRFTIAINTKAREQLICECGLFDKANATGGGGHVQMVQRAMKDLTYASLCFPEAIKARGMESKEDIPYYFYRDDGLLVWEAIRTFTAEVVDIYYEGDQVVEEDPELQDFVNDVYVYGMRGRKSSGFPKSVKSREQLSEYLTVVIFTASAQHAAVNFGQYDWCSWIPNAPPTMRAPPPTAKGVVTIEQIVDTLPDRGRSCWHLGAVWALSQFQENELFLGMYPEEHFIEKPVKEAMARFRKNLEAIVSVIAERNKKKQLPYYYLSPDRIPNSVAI
- PROTOCOL: Binding affinity to 5-LOX (unknown origin)
Answer each item with its documented K.

Oc1c(Cc2cn(Cc3ccccc3)c3ccccc23)c2ccccc2n1-c1c(Cl)cccc1Cl    0.8 10^8/M
O=C1C(Cc2ccc[nH]2)c2ccccc2N1c1c(Cl)cccc1Cl (stereo not given)    1.1 10^8/M
CCOC(=O)Cn1cccc1CC1c2ccccc2N(c2c(Cl)cccc2Cl)C1O (stereo not given)    1.7 10^8/M
O=C(O)Cn1cc(Cc2c(O)n(-c3c(Cl)cccc3Cl)c3ccccc23)c2ccccc21    2.5 10^8/M
O=C1C(Cc2cccn2Cc2ccccc2)c2ccccc2N1c1c(Cl)cccc1Cl (stereo not given)    2.4 10^8/M
COc1cc(CC2C(=O)N(c3c(Cl)cccc3Cl)c3ccccc32)cc(OC)c1OC (stereo not given)    0.9 10^8/M

Give one value of K per listed molecule.
1. O=C(O)Cn1cccc1Cc1c(O)n(-c2c(Cl)cccc2Cl)c2ccccc12
2. C=CCn1cc(Cc2c(O)n(-c3c(Cl)cccc3Cl)c3ccccc23)c2ccccc21
3. C#CCn1cc(Cc2c(O)n(-c3c(Cl)cccc3Cl)c3ccccc23)c2ccccc21
4. O=C1C(Cc2c[nH]c3ccccc23)c2ccccc2N1c1c(Cl)cccc1Cl (stereo not given)

(A)
["4.9 10^8/M", "1.8 10^8/M", "3.1 10^8/M", "4.2 10^8/M"]
